Each item that follows carries a reported EC50.
# tested target: T1, rhIL-1RAcP/Fc Chimera (human, UniProt Q9NPH3 21-359)
# T1 construct: also called P013_03; P013-03
# T1 sequence (looked up): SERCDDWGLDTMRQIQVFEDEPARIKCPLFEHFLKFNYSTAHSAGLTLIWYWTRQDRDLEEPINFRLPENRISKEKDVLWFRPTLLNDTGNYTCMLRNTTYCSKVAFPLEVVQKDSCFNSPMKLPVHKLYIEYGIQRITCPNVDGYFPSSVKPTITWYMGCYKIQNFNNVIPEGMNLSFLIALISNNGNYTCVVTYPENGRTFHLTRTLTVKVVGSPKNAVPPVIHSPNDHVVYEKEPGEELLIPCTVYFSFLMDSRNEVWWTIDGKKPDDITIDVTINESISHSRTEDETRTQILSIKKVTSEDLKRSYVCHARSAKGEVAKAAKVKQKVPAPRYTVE
# protocol text: ELISA, recombinant purified mAb
Dear colleague, please return just the value in µg/mL, with no unit written.

binder	unit of measure	EC50
P013.S.01.B.H06 (antibody, V domains shown, rabbit monoclonal antibody; also called P013.A.00086.B03) VH: LEQSGGGGEGGLVKPGGSLELCCKASGFSLSSSYWICWVRQAPGKGLEWIGCIYVGSSGSTYYASWVSGRFTLSRDIDQSTGCLQLNSLTAADTAMYYCARDIYGSTNGYDLWGQGTLVTVSS VL: ALVMTQTPSPVSAAVGGTVTINCQASEDIYSNLAWFQQKPGQPPKLLIYQASKLASGVPSRFSGSGSGTEFTLTISGLQSDDVATYYCLGVGTYISGDGSLDNAFGGGTEVVVK	µg/mL	0.064
P013.S.01.B.C03 (antibody, V domains shown, rabbit monoclonal antibody; also called P013.A.00133.D11) VH: QSVEESGGRLVTPGTPLTLTCTVSGIDLSNYAMSWVRQAPGKGLEWIGSVISGGSTYYATWARGRFTISKSSTTVDLKMTSLTTEDTATYFCARGCPGYNGDKYTFDLWGPGTLVTVSS VL: AFEMTQTPSSVSEPVGGTVTIKCQASQSIYNYLSWYQQKPGQRPKLLIYRASTLASGVPSRFKGSGSGTEFTLTISGVESADAATYYCQQGATSYDIENPFGGGTEVVVK	µg/mL	0.032
P013.S.01.B.B04 (antibody, V domains shown, rabbit monoclonal antibody; also called P013.A.00086.E02) VH: QSVEESGGRLVTPGTPLTLTCTVSGIDLDNYAMGWVRQAPGKGLEYIGVISSDGFFYDASWAKGRFTISKASSTTVDLKMTGLTPEDTATYFCARDRGTSTGSLDLWGQGTLVTVSS VL: ALVMTQTPASVSEPVGGTVTIKCQASENIGNGLAWYQQKPGQPPNLLIYGASTLASGVPSRFSGSGYGTEFTLTVSDLESGDAATYYCQCTYWNPDYIGGAFGGGTEVVVT	µg/mL	0.042
P013.S.01.B.A04 (antibody, V domains shown, rabbit monoclonal antibody; also called P013.A.00085.C03) VH: QEQLEESGGGLVKPGGTLTLTCKASGIDFSSYYYMCWVRQAPGKGLEWIACIFIGYGDVTWYASWAKGRFTISKASSTTVTLQMTSLTAADTATYFCARALGSSGYRVNLWGPGTLVTVSS VL: ALVMTQTPSSVSAAVGGTVTINCQASENIYSSLAWYQQKPGQPPKLLIYDASDLASGVPSRFKGSGSGKEFTLTISDLESDDAATYYCQQGYYSGGTDNDVFGGGTEVVVK	µg/mL	0.027

Now examine the next entry.
q: Give its EC50 value. Item: P013.S.01.B.G06 (antibody, V domains shown, rabbit monoclonal antibody; also called P013.A.00085.H05) VH: QSLEESGGRLVTPGTPLTLTCTASGFTISSYYMSWVRQAPGKGLEWIGGIATDGNTYYANWAKGRFTVSRTSTTVDLKVTSPTAEDTATYFCARGGPAYSRGTHYAMDLWGPGTLVTVSS VL: AYDMTQTPASVEVAVGGTVTIKCQASQSIYIYLAWYQQKPGQRPKQLIYDASKLASGVPSRFSGSGSGTEFTLTISGVESADAATYYCQQGATIWNVDNPFGGGTEVVVK
a: 0.115
